Provenance of the data: paper PMC12276032

Give measured CC50 for each item. Keep answers brief.
Experiment: Cytotoxicity on RAW 264.7 macrophages, viability assay (MTT)
Type: cell-based
Settings: mouse; RAW 264.7 macrophages, MTT; mean ± SD, n = 3; read-out: Cytotoxicity on macrophages CC50

>>> observed("O=C1/C(=C/c2ccc(Cl)cc2)COc2ccccc21 [Compound 1, (E)‐3‐(4‐chlorobenzylidene)chroman‐4‐one]")
"> 100 µM"

--- query ---
// sample COc1ccc(/C=C2\COc3ccccc3C2=O)cc1 , its CC50 was > 100 µM

====

Test: Cytotoxicity on RAW 264.7 macrophages, viability assay (MTT)
Assay type: cell-based
Conditions: mouse
Entries whose CC50 is below 70 µM take 1; entries at or above 70 µM take 0.

Example results:
>>> group_label("O=C1/C(=C/c2ccc([N+](=O)[O-])o2)COc2cc(N3CCCCC3)ccc21")
1
>>> group_label("COc1ccc(/C=C2\\COc3cc(OC)cc(O)c3C2=O)cc1")
1
>>> group_label("O=C1/C(=C/c2cccc(OCc3ccc(F)cc3F)c2)COc2ccccc21")
0
>>> group_label("COc1ccc(/C=C2\\COc3cc(O)ccc3C2=O)cc1")
1

is_below(CC50, 70 µM) for O=C1/C(=C/c2ccc(O)c(Br)c2)COc2ccccc21 ?
1

is_below(CC50, 70 µM) for COc1ccc(/C=C2\COc3ccccc3C2=O)cc1O ?
1

is_below(CC50, 70 µM) for COc1ccc(/C=C2\COc3ccc(Cl)cc3C2=O)cc1 ?
1

is_below(CC50, 70 µM) for COc1ccc(/C=C2\COc3cc(OC)c(OC)c(OC)c3C2=O)cc1 ?
1

is_below(CC50, 70 µM) for COc1ccc(/C=C2\COc3cc(O)ccc3C2=O)cc1OC ?
0

is_below(CC50, 70 µM) for O=C1/C(=C/c2ccc3c(c2)OCO3)COc2ccccc21 ?
0

is_below(CC50, 70 µM) for O=C1/C(=C/c2ccc(F)cc2)COc2ccccc21 ?
1

is_below(CC50, 70 µM) for COc1ccc(/C=C2\COc3ccc(Br)cc3C2=O)cc1 ?
0

is_below(CC50, 70 µM) for O=C1/C(=C/c2ccc(Cl)c(Cl)c2)COc2ccccc21 ?
1

is_below(CC50, 70 µM) for O=C1/C(=C/c2ccc(O)cc2)COc2ccccc21 ?
1

is_below(CC50, 70 µM) for O=C1/C(=C/c2ccc(Br)cc2)COc2ccccc21 ?
0

is_below(CC50, 70 µM) for COc1ccc2c(c1)OC/C(=C\c1ccc(OC)c(OC)c1)C2=O ?
0

is_below(CC50, 70 µM) for O=C1/C(=C/c2ccc(-c3ccc([N+](=O)[O-])cc3)o2)COc2ccccc21 ?
0

is_below(CC50, 70 µM) for COc1ccc(/C=C2\COc3ccccc3C2=O)cc1Br ?
1

====

Assay: Cytotoxicity on RAW 264.7 macrophages, viability assay (MTT)
Format: cell-based
Conditions: mouse
measurement-kind: CC50 (µM)
One number for each entry, in µM.

>>> observed("O=C1/C(=C/c2ccc([N+](=O)[O-])o2)COc2ccccc21")
41.6
>>> observed("O=C1c2ccccc2OCC1Cc1ccc(Cl)cc1 (centres unmarked)")
18.3
>>> observed("O=C1/C(=C/c2cccc(C(F)(F)F)c2)COc2ccccc21")
14.5
>>> observed("O=C1/C(=C/c2ccc(Cl)cc2)COc2ccc(Cl)cc21")
19.1
>>> observed("COc1cc(OC)c2c(c1)OC/C(=C\\c1ccccc1O)C2=O")
60.6
>>> observed("O=C1/C(=C/c2ccc(O)c(Cl)c2)COc2ccccc21")
58.7
>>> observed("O=C1/C(=C/c2ccc(C(F)(F)F)cc2)COc2ccccc21")
43.4
>>> observed("O=C1/C(=C/c2ccc(-n3ccnc3)cc2)COc2ccccc21")
93
>>> observed("COc1ccc(/C=C2\\COc3cc(OC)ccc3C2=O)cc1")
60.1
>>> observed("COc1cc2c(c(OC)c1OC)C(=O)/C(=C/c1ccccc1O)CO2")
21.5

State recorded CC50 for all listed molecules.
1. O=C1/C(=C/c2ccc(Cl)cc2)COc2ccc(Br)cc21
2. O=C1/C(=C/c2ccc([N+](=O)[O-])s2)COc2cc(N3CCCCC3)ccc21
3. COc1ccc(/C=C2\COc3cc(OC)cc(OC)c3C2=O)cc1
4. COc1cc(/C=C2\COc3ccccc3C2=O)ccc1O

1: 97.3; 2: 56.3; 3: 30.4; 4: 47.7

// sample O=C1/C(=C/c2cccc(Cl)c2)COc2ccccc21 , its CC50 was 33.6
